I'd be grateful if you could share measured Bliss excess for these entries.
Tested on: KU812 (Chronic Myelogenous Leukemia)
Experiment: Bliss excess, mean over the matrix (fraction); higher = more synergy;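 further: after 72 h of two-drug dosing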
Please give the numeric answer without any surrounding text.

The compound CC(=O)c1c(C)c2cnc(Nc3ccc(N4CCNCC4)cn3)nc2n(C2CCCC2)c1=O [Palbociclib] + Cn1cnc2c(F)c(Nc3ccc(Br)cc3Cl)c(C(=O)NOCCO)cc21 [Selumetinib] (first compound max 10 µM, 7x7, partner max 10 µM) showed Bliss excess equal to -0.0536

Just so you know, measured Bliss excess for CCc1c2c(nc3ccc(O)cc13)-c1cc3c(c(=O)n1C2)COC(=O)[C@]3(O)CC [SN-38] + O=C(c1cc(Cc2n[nH]c(=O)c3ccccc23)ccc1F)N1CCN(C(=O)C2CC2)CC1 [Olaparib] (first compound max 0.3 µM, 7x7, partner max 10 µM) came out at 0.0053

---

Please go through the items and note down their Bliss excess.
System: VMRC-RCZ (Kidney Carcinoma)
Test: Bliss excess, mean over the matrix (fraction); higher = more synergy
Enter the number alone.

VMRC-RCZ (Kidney Carcinoma) assay, compound C[C@@H]1COCCN1c1cc(C2([S@](C)(=N)=O)CC2)nc(-c2ccnc3[nH]ccc23)n1 [AZD6738] + C1CC(C1)(C(=O)[O-])C(=O)[O-].N.N.[Pt+2] [Carboplatin] (first compound max 10 µM, 7x7, partner max 10 µM) , recorded Bliss excess = -0.0249

Assay VMRC-RCZ (Kidney Carcinoma), sample Cc1c2c(nn1C)CSCc1cc(n(C)n1)CSc1cc(c3ccccc3c1)OCCCc1c(C(=O)O)n(C)c3c-2c(Cl)ccc13 [AZD5991] + Cn1cnc2c(F)c(Nc3ccc(Br)cc3Cl)c(C(=O)NOCCO)cc21 [Selumetinib] (first compound max 1 µM, 7x7, partner max 3 µM) , Bliss excess read: -0.0777

Entry COc1cccc(OCCCN)c1-c1cc(Nc2cnc(C#N)cn2)n[nH]1 [Prexasertib] + C[C@@H]1COCCN1C2=NC(=NC(=C2)C3(CC3)[S@](=N)(=O)C)C4=C5C=CNC5=NC=C4 [AZD6738] (first compound max 1 µM, 7x7, partner max 10 µM) , tested on VMRC-RCZ (Kidney Carcinoma), has a reported Bliss excess of 0.0255

The reported VMRC-RCZ (Kidney Carcinoma) Bliss excess of CN(C)CCCOc1ccc(-c2ccc3ncc4c(c3c2)n(C2CCOCC2)c(=O)n4C)cn1 [AZD0156] + C=CCn1c(=O)c2cnc(Nc3ccc(N4CCN(C)CC4)cc3)nc2n1-c1cccc(C(C)(C)O)n1 [AZD1775] (first compound max 1 µM, partner max 1 µM) is -0.0797

Known value: VMRC-RCZ (Kidney Carcinoma) Bliss excess of the compound Cn1cnc2c(F)c(Nc3ccc(Br)cc3Cl)c(C(=O)NOCCO)cc21 [Selumetinib] + C=CCn1c(=O)c2cnc(Nc3ccc(N4CCN(C)CC4)cc3)nc2n1-c1cccc(C(C)(C)O)n1 [AZD1775] (first compound max 10 µM, partner max 1 µM) equals -0.066

Lab entry: VMRC-RCZ (Kidney Carcinoma) assay, compound C[C@@H](Nc1cc(F)cc(F)c1)c1cc(C(=O)N(C)C)cc2c(=O)cc(N3CCOCC3)oc12 [AZD8186] + C1CN(CCC1(C(=O)N[C@@H](CCO)C2=CC=C(C=C2)Cl)N)C3=NC=NC4=C3C=CN4 [AZD5363] (first compound max 10 µM, 7x7, partner max 10 µM) , Bliss excess = -0.0134

Noted Bliss excess for Cc1c2c(nn1C)CSCc1cc(n(C)n1)CSc1cc(c3ccccc3c1)OCCCc1c(C(=O)O)n(C)c3c-2c(Cl)ccc13 [AZD5991] + CN(C)CCCOc1ccc(-c2ccc3ncc4c(c3c2)n(C2CCOCC2)c(=O)n4C)cn1 [AZD0156] (first compound max 1 µM, 7x7, partner max 1 µM) , tested on VMRC-RCZ (Kidney Carcinoma): -0.018
